Values from patent US12581252B2

target: H1047R PIK3CA enzyme (Homo sapiens, UniProt P42336, H1047R); experiment: ADP-Glo Biochemical PIK3CA Kinase Assay
Sequence (P42336 whole entry H1047R): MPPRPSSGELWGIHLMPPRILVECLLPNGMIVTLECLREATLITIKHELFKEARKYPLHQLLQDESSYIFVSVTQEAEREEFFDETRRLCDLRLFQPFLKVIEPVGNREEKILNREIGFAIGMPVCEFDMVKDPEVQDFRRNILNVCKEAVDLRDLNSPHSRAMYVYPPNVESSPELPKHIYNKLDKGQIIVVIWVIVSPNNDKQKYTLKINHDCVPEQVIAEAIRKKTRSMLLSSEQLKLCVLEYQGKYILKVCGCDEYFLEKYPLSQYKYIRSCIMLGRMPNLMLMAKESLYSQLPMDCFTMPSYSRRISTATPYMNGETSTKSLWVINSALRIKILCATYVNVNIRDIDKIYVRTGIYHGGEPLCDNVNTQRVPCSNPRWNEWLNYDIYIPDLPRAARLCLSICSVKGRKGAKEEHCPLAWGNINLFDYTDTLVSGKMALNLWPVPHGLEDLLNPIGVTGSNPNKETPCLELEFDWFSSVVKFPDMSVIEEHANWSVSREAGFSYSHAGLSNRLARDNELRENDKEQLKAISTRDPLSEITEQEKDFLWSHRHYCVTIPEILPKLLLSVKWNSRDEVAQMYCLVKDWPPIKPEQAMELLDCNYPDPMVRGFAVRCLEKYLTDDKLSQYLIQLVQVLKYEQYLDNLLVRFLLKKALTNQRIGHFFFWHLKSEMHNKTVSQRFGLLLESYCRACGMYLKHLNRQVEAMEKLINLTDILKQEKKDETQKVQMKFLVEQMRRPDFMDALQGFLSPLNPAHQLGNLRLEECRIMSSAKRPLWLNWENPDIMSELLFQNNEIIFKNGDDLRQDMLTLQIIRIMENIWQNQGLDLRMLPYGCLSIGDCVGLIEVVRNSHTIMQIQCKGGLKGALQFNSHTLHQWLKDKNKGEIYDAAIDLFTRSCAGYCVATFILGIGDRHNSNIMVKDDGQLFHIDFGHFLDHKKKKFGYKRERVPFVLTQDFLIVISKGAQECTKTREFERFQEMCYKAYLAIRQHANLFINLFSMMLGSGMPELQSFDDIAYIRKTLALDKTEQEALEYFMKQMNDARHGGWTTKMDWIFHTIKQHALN
Sequence (P27986 whole entry partner): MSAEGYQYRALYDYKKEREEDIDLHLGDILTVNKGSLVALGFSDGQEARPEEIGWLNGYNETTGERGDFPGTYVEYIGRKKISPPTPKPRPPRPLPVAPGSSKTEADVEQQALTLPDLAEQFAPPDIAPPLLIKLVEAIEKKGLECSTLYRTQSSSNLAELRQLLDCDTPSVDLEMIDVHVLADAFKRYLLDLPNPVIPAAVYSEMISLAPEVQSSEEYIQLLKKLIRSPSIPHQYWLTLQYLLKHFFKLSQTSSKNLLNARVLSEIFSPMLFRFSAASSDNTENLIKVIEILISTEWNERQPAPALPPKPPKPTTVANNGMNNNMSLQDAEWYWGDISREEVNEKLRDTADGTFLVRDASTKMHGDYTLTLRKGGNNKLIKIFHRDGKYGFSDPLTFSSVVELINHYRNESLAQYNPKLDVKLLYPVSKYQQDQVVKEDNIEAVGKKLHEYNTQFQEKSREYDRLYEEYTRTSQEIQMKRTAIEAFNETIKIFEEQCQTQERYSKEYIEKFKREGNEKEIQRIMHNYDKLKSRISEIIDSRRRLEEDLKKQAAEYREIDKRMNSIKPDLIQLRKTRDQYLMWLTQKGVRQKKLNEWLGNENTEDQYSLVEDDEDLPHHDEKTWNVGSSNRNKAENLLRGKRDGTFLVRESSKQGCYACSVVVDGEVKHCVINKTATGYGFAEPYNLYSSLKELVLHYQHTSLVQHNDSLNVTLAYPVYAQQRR
Here, each record is paired with measured IC50 data.

Known results for compounds:
# compound, IC50
records = [
    ("O=C(Nc1cc(-c2ncc[nH]2)cc2c1C(c1cc(F)ccc1Cl)NC2=O)c1cc(F)cc(C(F)(F)F)c1 (stereo not shown) [Compound I-712]", "≤ 100 nM"),
    ("Nc1ncc(C#Cc2cc(NC(=O)c3cc(F)cc(C(F)(F)F)c3)c3c(c2)C(=O)NC3c2cc(F)ccc2Cl)cn1 (stereo not shown) [Compound I-1153]", "≤ 100 nM"),
    ("Cc1ncc(-c2cc(NC(=O)c3cc(F)cc(Cl)c3)c3c(n2)C(=O)NC3c2cc(F)ccc2Cl)s1 (stereo not shown) [Compound I-457]", "≤ 100 nM"),
    ("O=C(Nc1cc(Br)cc2c1C(c1cc(F)ccc1Cl)NC2=O)NC12CC3CC(C1)CC(C(F)(F)F)(C3)C2 (stereo not shown) [Compound I-1256]", "100 to 500 nM"),
    ("O=C1N[C@H](c2cc(F)ccc2Cl)c2c(NC(=O)N3CCc4ccccc43)cc(-c3ccc4ncnn4c3)cc21 (stereo in doubt) [Compound I-1716]", "1000 to 10000 nM"),
    ("COCCOc1cc(NC(=O)c2cc(F)cc(C(F)(F)F)c2)c2c(c1)C(=O)NC2c1cc(F)ccc1Cl (stereo not shown) [Compound I-977]", "100 to 500 nM"),
]

Here is the next item to consider.
Measured on H1047R PIK3CA enzyme (Homo sapiens, UniProt P42336, H1047R), NS(=O)(=O)CCNC(=O)c1cc(NC(=O)c2cc(F)cc(C(F)(F)F)c2)c2c(c1)C(=O)NC2c1cc(F)ccc1Cl (stereo not shown) [Compound I-1469] has a documented IC50 of ≤ 100 nM

====

List of pIC50 values.
target: H1047R PIK3CA enzyme (Homo sapiens, UniProt P42336, H1047R); assay: ADP-Glo Biochemical PIK3CA Kinase Assay
pIC50: −log10 of the molar value.

# compound, reported_metric, reported_value
data = [
    ("O=C1N[C@H](c2cc(F)ccc2Cl)c2c(Nc3cn[nH]c3)cc(Br)cc21 (racemic) [Compound I-2183]", "pIC50", "4.00 to 5.00"),
    ("O=C1NC(c2cc(F)ccc2Cl)c2c1cccc2-c1nc2c(F)cc(C(F)(F)F)cc2[nH]1 (stereo not shown) [Compound I-1944]", "pIC50", "≥ 7.00"),
    ("Cn1nccc1Cc1cc(NC(=O)c2cc(F)cc(C(F)(F)F)c2)c2c(c1)C(=O)NC2c1cc(F)ccc1Cl (stereo not shown) [Compound I-1293]", "pIC50", "≥ 7.00"),
    ("O=C(CN1CCCC1)Nc1cc(-c2ccc3ncnn3c2)cc2c1C(c1cc(F)ccc1Cl)NC2=O (stereo not shown) [Compound I-1783]", "pIC50", "4.00 to 5.00"),
    ("O=C1NC(c2cc(F)ccc2Cl)c2c(NC(=O)N3CC(O)(C(F)(F)F)c4cc(F)ccc43)cccc21 (stereo not shown) [Compound I-2474]", "pIC50", "≥ 7.00"),
    ("O=C1N[C@H](c2cc(F)ccc2Cl)c2c(NC(=O)[C@H]3C[C@H]3C(F)(F)F)cc(Br)cc21 (racemic) [Compound I-1854]", "pIC50", "4.00 to 5.00"),
]

Next item in the queue.
Reading of pIC50 for O=C1NC(c2ncccc2Cl)c2c(NC(=O)c3csc4ccccc34)cccc21 (stereo not shown) [Compound I-57] with H1047R PIK3CA enzyme (Homo sapiens, UniProt P42336, H1047R): 5.00 to 6.00

====

biological target: H1047R PIK3CA enzyme (Homo sapiens, UniProt P42336, H1047R); assay: ADP-Glo Biochemical PIK3CA Kinase Assay
pIC50: −log10 of the molar value.
A collection of compounds and their measured pIC50

Answered examples (2):
# compound, pIC50
rows = [
    ("O=C1NC(c2cc(F)ccc2Cl)c2c(NC(=O)[C@H]3CCC[C@@H](C(F)(F)F)C3)cccc21 (stereo partly shown)", "6.00 to 6.30"),
    ("CC(C)(O)CNc1cc(NC(=O)c2cc(F)cc(C(F)(F)F)c2)c2c(c1)C(=O)N[C@@H]2c1cc(F)ccc1Cl", "≥ 7.00"),
]

Just so you know, measured pIC50 for N#Cc1c(N)cc(NC(=O)c2cc(F)cc(C(F)(F)F)c2)c2c1C(=O)NC2c1cc(F)ccc1Cl (stereo not shown) came out at ≥ 7.00

Form field pIC50, entry N#CCc1cc(NC(=O)N2C[C@@](O)(C(F)(F)F)c3ccccc32)c2c(c1)C(=O)N[C@@H]2c1cc(F)ccc1Cl (single isomer, unassigned) : 5.00 to 6.00

====

Molecular target: H1047R PIK3CA enzyme (Homo sapiens, UniProt P42336, H1047R)
Assay: ADP-Glo Biochemical PIK3CA Kinase Assay
Experimental: Compounds to be assayed were plated in 16 doses of 1:2 serial dilutions (20 nL volume each well) on a 1536-well plate, and the plate warmed to room temperature. […] To the well was added 1 μL of 200 μM ATP and 20 μM of diC8-PIP2 in Substrate Assay Buffer (50 mM HEPES pH7.4, 50 mM NaCl, 5 mM DTT and 0.03% CHAPS) to start the reaction, and the plate was shaken for 10 seconds, then spun briefly at 1500 rpm, and then incubated for 60 minutes at room temperature. […]
IC50 by entry:

# compound, system_tested, IC50
measured = [
    ("C[C@H](C#N)Cn1cc(-c2cc(NC(=O)N3C[C@@H](O)c4cc(F)ccc43)c3c(c2)C(=O)N[C@H]3c2cc(F)ccc2Cl)cn1 (single isomer, unassigned)", "H1047R PIK3CA enzyme (Homo sapiens, UniProt P42336, H1047R)", "1 to 10 µM"),
]

Now for the compound whose IC50 we want.
compound O=C(Nc1cc(C2CCO2)cc2c1C(c1cc(F)ccc1Cl)NC2=O)c1cc(F)cc(C(F)(F)F)c1 (racemic) , IC50 observed: 0.1 to 0.5 µM

====

target: H1047R PIK3CA enzyme (Homo sapiens, UniProt P42336, H1047R); assay: ADP-Glo Biochemical PIK3CA Kinase Assay
pIC50: −log10 of the molar value.
reported_metric: pIC50

# compound, reported_value
data = [
    ("CC[C@@H](CC(=O)Nc1cccc2c1[C@H](c1cc(F)ccc1Cl)NC2=O)[C@H](C)C(F)(F)F (single isomer, unassigned)", "5.00 to 6.00"),
]

pIC50 measured on Cc1ccccc1C1NC(=O)c2c(CCO)ccc(NC(=O)c3nsc4ccccc34)c21 (centres unmarked) = ≥ 7.00

pIC50 measured on O=C1NC(c2cc(F)ccc2Cl)c2c(/C=C/c3ccccc3)cccc21 (centres unmarked) = 4.00 to 5.00

The compound listed as Cc1ccccc1C1NC(=O)c2cc(C3(O)CC3)cc(NC(=O)c3nsc4ccccc34)c21 (centres unmarked) shows pIC50 equal to ≥ 7.00

# pIC50 of O=C1N[C@H](c2cc(F)ccc2Cl)c2c(NC(=O)N3C[C@@H](O)c4cc(F)ccc43)cc(-n3nccn3)cc21 (single isomer, unassigned) [Compound I-2345] = 5.00 to 6.00

Lab book: pIC50 of O=C(CCl)Nc1cc(NC(=O)c2cc(F)cc(C(F)(F)F)c2)c2c(c1)C(=O)NC2c1cc(F)ccc1Cl (centres unmarked) noted as ≥ 7.00

// recorded pIC50 for O=C1Cc2cc(-c3cc(NC(=O)c4cc(F)cc(C(F)(F)F)c4)c4c(c3)C(=O)NC4c3cc(F)ccc3Cl)ccc2N1 (centres unmarked) : ≥ 7.00

Lab book: pIC50 of N#CCN1CC(c2cc(NC(=O)c3cc(F)cc(C(F)(F)F)c3)c3c(c2)C(=O)NC3c2cc(F)ccc2Cl)C1 (centres unmarked) noted as ≥ 7.00

Briefly, pIC50 measured for O=C(Nc1cc(CN2CC(F)(F)C2)cc2c1C(c1cc(F)ccc1Cl)NC2=O)c1cc(F)cc(C(F)(F)F)c1 (centres unmarked) : ≥ 7.00

Noted for O=C(Nc1cc(Br)cc2c1C(c1cc(F)ccc1Cl)NC2=O)c1ccccc1Cl (centres unmarked) : its pIC50 reads 4.00 to 5.00

pIC50 reading for Cc1ccccc1C1NC(=O)c2cccc(NC(=O)c3nscc3-c3ccccc3)c21 (centres unmarked) : 5.00 to 6.00

====

Reported pIC50 by item:
molecular target: H1047R PIK3CA enzyme (Homo sapiens, UniProt P42336, H1047R); test: ADP-Glo Biochemical PIK3CA Kinase Assay
pIC50: −log10 of the molar value.

# molecule, pIC50
records = [
    ("O=C1N[C@@H](c2cc(F)ccc2Cl)c2c(NC(=O)[C@H]3C[C@H]3C(F)(F)F)cc(Br)cc21 (racemic)", "4.00 to 5.00"),
    ("O=C1NC(c2cc(F)ccc2Cl)c2c(NC(=O)C3(c4cccc(F)c4)CC3)cc(Br)cc21 (stereo not shown)", "5.00 to 6.00"),
    ("O=C(Nc1cc(Br)cc2c1[C@H](c1cc(F)ccc1Cl)NC2=O)c1cc(F)cc(C(F)(F)F)c1", "≥ 7.00"),
    ("O=C1NC(c2cc(F)ccc2Cl)c2c(NC(=O)N3CCNC(C(F)(F)F)C3)cccc21 (stereo not shown)", "4.00 to 5.00"),
    ("O=C(Nc1cc(-c2ccc3ncc(Cl)n3c2)cc2c1C(c1cc(F)ccc1Cl)NC2=O)c1cc(F)cc(C(F)(F)F)c1 (stereo not shown)", "≥ 7.00"),
    ("O=C(Nc1cccc2c1[C@@H](c1cc(F)ccc1C(F)F)NC2=O)c1cc(F)cc(C(F)(F)F)c1", "5.00 to 6.00"),
]

pIC50 measured on Nc1nc2cc(-c3cc(NC(=O)c4cc(F)cc(C(F)(F)F)c4)c4c(c3)C(=O)NC4c3cc(F)ccc3Cl)ccc2o1 (stereo not shown) = ≥ 7.00

Lab note: measured pIC50 of CC1(Cc2cc(NC(=O)N3C[C@@](O)(C(F)(F)F)c4cc(F)ccc43)c3c(c2)C(=O)N[C@H]3c2cc(F)ccc2Cl)COC1 (single isomer, unassigned) was 4.00 to 5.00

Short answer for `Cc1ccc(F)cc1[C@H]1NC(=O)c2cc(Br)cc(NC(=O)c3cc(F)cc(C(F)(F)F)c3)c21` : pIC50 was 5.00 to 6.00

// field: pIC50; key: O=C1N[C@H](c2cc(F)ccc2Cl)c2c(NC(=O)N3C[C@@](O)(C(F)(F)F)c4cc(F)ccc43)ccnc21 (single isomer, unassigned) ; value = ≥ 7.00

Lab book: pIC50 of O=C1N[C@@H](c2cc(F)ccc2Cl)c2c(NC(=O)N3C[C@@](O)(C(F)(F)F)c4cc(F)ccc43)cccc21 (single isomer, unassigned) noted as ≥ 7.00

Item: O=C1NC(c2cc(F)ccc2Cl)c2c(NCC(=O)N3CCCCC3)cc(-c3ccc4ncnn4c3)cc21 (stereo not shown) | pIC50: 4.00 to 5.00

What the record says about O=C1N[C@H](c2cc(F)ccc2Cl)c2c(NC(=O)N3C[C@H](O)c4cc(F)ccc43)cc(Cl)cc21 (single isomer, unassigned) : pIC50 is 5.00 to 6.00
